# assayMethodText: yeast display, Sf9 membrane polyspecificity reagent, FACS + sequencing; frameworks hold sequencing errors
property: polyreactivity (PSR sort gate)

Field: example entries. Status: answers known.
sequenceentry=QVQLVESGGGLVQAGGSLRLSCAASGIILLFYVMGWYRQAPGKERELVASINGRSARTYYADSVKGRFTISRDNAKNTVYLQMNSLKPEDTAVYYCAAGYRYAGNGQIANTGGYYWGQGTQVTVSS property="polyreactivity (PSR sort gate)" observedmeasurement="low polyreactivity"
sequenceentry=QVQLVESGGGLVQAGGSLRLSCAASGRTFSNYAMGWYRQAPGKERELVAAITGSGGSTYYADSVKGRFTISRDNAKNTVYLQLISLKPEDTAVYYCNAYRASKYLTGNGHDYWGQGTQVTVSS property="polyreactivity (PSR sort gate)" observedmeasurement="low polyreactivity"
sequenceentry=QVQLVESGGRLVQAGGSLRLSCAASGRTSGINAMGWYRQAPGKERELVAAISSGGRTYYADSVKGRFTISRDNAKNTVYLQMNSLKPEDTAVYYCAAVIHWSLYRRMEYWGQGTQVTVSS property="polyreactivity (PSR sort gate)" observedmeasurement="high polyreactivity"
sequenceentry=QVQLVESGGGLVQAGGSLRLSCAASGSTFYFNSMGWYRQAPGKERELVAAITSGARTKYADSVKGRFTMSRDNAKITVYLQMNSLKPEDTAVYYCSASGLYYYRYRYYYWGQGTQVTVSS property="polyreactivity (PSR sort gate)" observedmeasurement="high polyreactivity"

Now look at this one.
[in] What polyreactivity (PSR sort gate) value was documented for this sequence, QVQLVESGGGLVQAGGSLRLSCAASGTFFIYAMGWYRQAPGKERELVATISTGGSTNYADSVKGRFTISRDNAKNTVYLQMNSLKPEDTAVYYFAAEWLYPHDGGYPRPMDYWGQGTQVTVSS ?
[out] low polyreactivity

---

# assayMethodText: yeast display, Sf9 membrane polyspecificity reagent, FACS + sequencing; frameworks hold sequencing errors
property: polyreactivity (PSR sort gate)

Field: example entries. Status: answers known.
sequenceentry=QVQLVESGGGLVQAGGSLRLSCAASGITFFAYTMGWYRQAHGKERELVASISSSGGSTNYADSVKGRFTISRDNAKNTVYLQMNSLKPEDTAVYYCAARQSLYRGGRWYDYWGQGTQVTVSS observedmeasurement="high polyreactivity"
sequenceentry=QVQLVESGGGLVQAGGSLRLSCAASGRIFVQYAMGWYRQAPGKERELVAAISGSGGRTYYADSVKGRFTISRDNAKNTVYLQMNSLKPEDTAVYYCNTARLHGQTQGGDYWGQGTQVTVSS observedmeasurement="high polyreactivity"
sequenceentry=QVQLVESGGGLVQAGGSLRLSCAASGITFYIYAMGWYRQAPGKEREFVAAISDDGSTHYADSVKGRFTISRDNAKNTVYLQLNSLKPEDTAVYYCNADYYWFFDFFDYDYWGQGTQVTVSS observedmeasurement="low polyreactivity"
sequenceentry=QVQLVESGGGLVQAGGSLRLSCAASGSIFSYYAMGWYRQAPGKERELVAGITWSGGRTYYADSVKGRFTISRDHAQNTVYLQMNSLKPEDTAVYYCAAVQWFSRRSRYDYWGQGTQVTVSS observedmeasurement="high polyreactivity"
sequenceentry=QVQLVESGGGLVQAGGSLRLSCADSGRIFGRYAMGWYRQAPGQERELVAGISARGGSTYYADSVKGRFTISRDNAKNTVYLQMNRLKPEDTAVYYCAAAGYRGGGYWGQGTQVTVSS observedmeasurement="high polyreactivity"

[in] What polyreactivity (PSR sort gate) value was documented for this sequence, QVQLVESGGGLVQAGGSLRLSCAASGSIFYYYAMGWYRQAPGKERELVAAITSGGSTYYADSVKGRFTISRDNAKNTVYYQMNSLIPEDTAVYYCAAVFYAAYLRYVWYSYDYWGQGTQVTVSS ?
[out] low polyreactivity

[in] Another sequence to look at: QDQLVESGGGLVQAGGSLRLSCAASGSTISGSAMGWYRQAPGKVRELVATMSRGGSTTYADSVKGRFTISRDNAKNTVYLQMNSLKPEDTAVYYCAAQTYVWWVKYHSGGQGTQVTVSS
[out] low polyreactivity

[in] Another sequence to look at: QVQLVESGGGLVQAGGTLRLSCAATRSTFYPYAMGWYRQAPGKERELVAAISDGDSTNYADSVKGRFTISRDNAKNTVSLQMNSVKPEDTAVYYCNADYVRIFYSYYGYHDYDYWGQGTQVTVSS
[out] low polyreactivity

---

# assayMethodText: yeast display, Sf9 membrane polyspecificity reagent, FACS + sequencing; frameworks hold sequencing errors
property: polyreactivity (PSR sort gate)

sequenceentry=QDQLVESGGGLVQAGGSLRLSCAASRNIFYINTMGWYIQAPGKERALVAAIDASDGTTYYADSVKGRFTISRDNAKNTVYLQMNSVKPEDTAVYYCATRRGYDSVYYFYTLWYYYWGQGTQVTVSS observedmeasurement="low polyreactivity"
sequenceentry=QVQLVESGGGLVQAGGSLRLICAASGYILWKAMGWYRQAPGKERELVAAIRFRVGSTSYADSVKGRFTISRDNAKNTVYLQMNSLKPVYTAVYYCTARWWVIRPYQRHDYWGQGTQVTVSS observedmeasurement="low polyreactivity"
sequenceentry=QVQLVESGGGLVQAGGSLRLSCAASGLTFTSYAMGWSRPAPGKERELVAAIDWSGGRTYYADSVKGRFTISRDNAKNTVYLQMNSLKPEDTAVYYCAAYSRNRALRFNYWGQGTQVTVSS observedmeasurement="high polyreactivity"
sequenceentry=QDQLVESGGGLVQAGGSLRLSCAASGRIIRQYAMGWYRQAPGKERELVAVISAGGARTYYADSVKGRFTISRDNAKNTVYLQMNSLKPEDTAVYYCAVSYPPGAYRRHFRYGYWGQGTQVTVSS observedmeasurement="high polyreactivity"
sequenceentry=QVQLVESGRGLVQAGGSLRLSCAASGITFGYYDMGWYRQAPGKERELVAAIDWTGGGTYYADSVKGRFTISRDYAKNTVYLQMNSVKPVDTAVYYCIDHAGGDSGVSYYPEYDYWGQGTQVTLSS observedmeasurement="low polyreactivity"
sequenceentry=QVQLVESGGGLVQAGGSLRLSCAASGFTFRQYAMGWYRQAPGKERELVAAISSGGSTYYADSVKGRFTISRDNAKNTVYLQMNSLKPEDTAVYYCNAVARYYVAYDMYWGQGTQVTVSS observedmeasurement="high polyreactivity"

[in] What polyreactivity (PSR sort gate) value was documented for this sequence, QVQLVESGGGLVQAGGSLRLSCAASGSISSAYAMGWYRQAPGKERELVAVITSGGSTNYADSVKGRFTISRDNAKNTVYLQMNSLKPEDTAVYYCNADTVAPLPYDYWGQGTQVTVSS ?
[out] low polyreactivity

[in] Another sequence to look at: QVQLVESGGGLVQAGGSLRLICAASGSIFASYVMGWYRQAPGKERDLVAAITSRGTSTYYADSVKGRFTISRDNAKNTVYFQINSLKTEDTAVYYCAARLYGSAPQHEYWGKGTQVTVSS
[out] low polyreactivity

---

# assayMethodText: yeast display, Sf9 membrane polyspecificity reagent, FACS + sequencing; frameworks hold sequencing errors
property: polyreactivity (PSR sort gate)

Field: example entries. Status: answers known.
sequenceentry=QVQLVESGGGLVQAGGSLRLSCAASGSTFDVYAMGWYRQAPGKERELVAAIDVRDSTTYYADSVKGRFTISRDNAKNTVYLQMNSLKPEDTAVYYCAAEADIEYGDDDYWGQGTQVTVSS property="polyreactivity (PSR sort gate)" observedmeasurement="high polyreactivity"
sequenceentry=QVQLVESCGGLVQAGGSLRLSCAASGSTFLVNAMGWYRPAPGKERELVAASSRGGGSTYYADSVKGRFTISRDKAKNTVYLQMNSLKPEDTAVYYCNARKWTIYGAHYYWGQGTQVTVSS property="polyreactivity (PSR sort gate)" observedmeasurement="high polyreactivity"
sequenceentry=QVQLVESGGGLVQAGGSLRLSCAASGFTFYAYVMGWYRQAPGKERELVAAISGSGTSTYYADSVKGRFTISRDNAKNTVYLQMNSLKPEDTAVYYCAADYYPWDLDDDYWGQGTQVTVSS property="polyreactivity (PSR sort gate)" observedmeasurement="high polyreactivity"
sequenceentry=QVQLVESWGGLVQAGGSLRLSCAASGIFYPMGWYTQAPGKERELVAAISSVGSTKYADSVKGRFTISRDNAKNTVYFQINSLKPEDTAVYYSNADVTRASSRYNSWGQGTQVTVSS property="polyreactivity (PSR sort gate)" observedmeasurement="low polyreactivity"

[in] What polyreactivity (PSR sort gate) value was documented for this sequence, QVQLVESGGGLVQAGGSLRLSCAASGFTFRSNMGWYRQAPGKEREFVAAITKSGGSTYYADSVKGRFTISRDNAKNTVYLQMNSLKPEDTAVYYCATKVDTYVFRYYYWGQGTQVTVSS ?
[out] high polyreactivity

[in] Another sequence to look at: QVQLVESGGGLVQAGGSLRLSCAACGSIFYLNAMGWYRQAPGKERELVAAITNGGSTYADSVKGRFTISRDNAKNTVYLQMNSLKPEDTAVYYCATRSWELGDYWGQGTQVTVSS
[out] low polyreactivity
